biological target: SHP2-C SH2; assay: SH2 binding enrichment of the phosphorylated peptide, bacterial display (enrichment ratio); higher = better substrate or ligand; peptides without Tyr show the background
Readout Kind: SH2 binding enrichment
Enter a number only.

GSRGKYSSGFH [ATM_Y332_R337H] yielded SH2 binding enrichment of 0.649

ESMLRYDVFGG [STOX1_Y607_E608D_YF] yielded SH2 binding enrichment of 0.627

SGGSSYGSGGG [KRT1_Y532] yielded SH2 binding enrichment of 0.527

NREGVYTDFAP [TGFBI_Y537_V539D] yielded SH2 binding enrichment of 0.927

WVFNHYRWFIW [BRCA2_Y2624_I2627F_YF] yielded SH2 binding enrichment of 0.693

GILDVYIFLGP [GAA_Y340] yielded SH2 binding enrichment of 0.79

KPPPSYESEEE [BRD4_Y599_T598S] yielded SH2 binding enrichment of 0.517

PSQRCYVYYYS [PTEN_Y174_R173C] yielded SH2 binding enrichment of 0.645

QRMGTYGVRAA [ICAM2_Y260] yielded SH2 binding enrichment of 0.881

WCSNDYLGMSQ [ALAS2_Y199_R204Q] yielded SH2 binding enrichment of 0.738

KVMANYMYKAG [MAML2_Y513] yielded SH2 binding enrichment of 1.06

LGQRIYQYIQS [DYRK1B_Y271] yielded SH2 binding enrichment of 1.2

QTLEAYIRCNK [SPAST_Y604_W607C] yielded SH2 binding enrichment of 0.626

FSSLGYPLPEG [ZSWIM4_Y87_P89L_YF] yielded SH2 binding enrichment of 1.07

----------
target: SHP2-C SH2; assay: SH2 binding enrichment of the phosphorylated peptide, bacterial display (enrichment ratio); higher = better substrate or ligand; peptides without Tyr show the background;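 further: peptide library displayed on the E. coli surface as eCPX fusions, selected cells deep-sequenced, score is each peptide's frequency after selection divided by its frequency in the input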
Readout Kind: SH2 binding enrichment
Enter a number only.

KVMANYVFKAG [MAML2_Y513_M514V_YF] yielded SH2 binding enrichment of 0.663

VEQIHYIGQNE [HMOX2_Y140_R137Q] yielded SH2 binding enrichment of 0.582

YRQNVYIPGSN [PCDHGA1_Y895] yielded SH2 binding enrichment of 0.661

LREIRYQGGNR [VWF_Y1570_V1565L] yielded SH2 binding enrichment of 0.504

PVQAAYRKVVA [HBB_Y131_Q132R] yielded SH2 binding enrichment of 0.597

FSPGSYERETF [NF1_Y2192] yielded SH2 binding enrichment of 0.612

LKSEMYQKLFK [RGS13_Y146_L150F] yielded SH2 binding enrichment of 1.24

PLDGEYFTLQI [TP53_Y327] yielded SH2 binding enrichment of 0.718

SNNFIYKTLGV [FAM83B_Y639_YF] yielded SH2 binding enrichment of 0.45

HHIDYYKKTTN [FGFR1_Y654] yielded SH2 binding enrichment of 0.535

NSFKFYMSDDI [ATRX_Y204_C200S_YF] yielded SH2 binding enrichment of 0.79

CYCSWYRGWAP [TIMP3_Y195_G190C] yielded SH2 binding enrichment of 1.26

SFDLDYDSVQP [MYC_Y16_N11S_YF] yielded SH2 binding enrichment of 0.633

GISDEYHVIRR [GCDH_Y398_H403R] yielded SH2 binding enrichment of 0.889

----------
molecular target: Fes (UniProt P07332); test: phosphorylation enrichment, bacterial display (enrichment ratio); higher = better substrate or ligand; peptides without Tyr show the background
Sequence (P07332 whole entry, looked up): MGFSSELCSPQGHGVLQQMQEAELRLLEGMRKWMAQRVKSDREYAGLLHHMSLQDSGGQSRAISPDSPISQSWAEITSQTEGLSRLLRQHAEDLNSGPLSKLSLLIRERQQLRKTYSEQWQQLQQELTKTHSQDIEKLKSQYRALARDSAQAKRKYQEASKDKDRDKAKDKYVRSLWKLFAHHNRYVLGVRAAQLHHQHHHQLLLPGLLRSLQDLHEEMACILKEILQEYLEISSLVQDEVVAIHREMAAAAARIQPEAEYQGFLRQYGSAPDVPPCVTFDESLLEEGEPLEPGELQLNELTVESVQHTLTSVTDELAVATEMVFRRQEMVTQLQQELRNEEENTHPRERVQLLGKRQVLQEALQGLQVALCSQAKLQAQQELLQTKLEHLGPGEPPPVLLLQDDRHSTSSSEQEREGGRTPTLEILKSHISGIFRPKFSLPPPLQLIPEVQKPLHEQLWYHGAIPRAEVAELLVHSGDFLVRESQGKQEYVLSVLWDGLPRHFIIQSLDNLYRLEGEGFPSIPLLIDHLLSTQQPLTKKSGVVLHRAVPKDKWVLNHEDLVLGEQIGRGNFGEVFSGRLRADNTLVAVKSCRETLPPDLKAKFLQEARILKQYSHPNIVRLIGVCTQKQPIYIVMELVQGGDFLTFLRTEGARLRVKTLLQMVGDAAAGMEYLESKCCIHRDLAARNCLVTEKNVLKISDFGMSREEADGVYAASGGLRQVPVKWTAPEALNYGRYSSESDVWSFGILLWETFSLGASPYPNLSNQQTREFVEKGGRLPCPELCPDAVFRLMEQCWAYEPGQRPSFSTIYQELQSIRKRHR
Readout Kind: phosphorylation enrichment
Enter a number only.

DGLASYLDKVR [KRT12_Y139_R135G] yielded phosphorylation enrichment of 0.757

KLKRSYSSPDI [USP8_Y717] yielded phosphorylation enrichment of 0.613

CTTIHDNYMCN [TP53_Y234_Y234D] yielded phosphorylation enrichment of 1

TKEPKYGGAGS [KIAA1210_Y1615_E1616G] yielded phosphorylation enrichment of 0.55

HLITAYRAHGF [PDHA1_Y118] yielded phosphorylation enrichment of 0.74

NGTVTYAIVAG [CDH23_Y1672] yielded phosphorylation enrichment of 0.992

YPKARYRWLVL [APTX_Y214_H215R] yielded phosphorylation enrichment of 0.787

FKDGQYWIRGR [ACSF3_Y466] yielded phosphorylation enrichment of 0.862

LIDGFYRLTAD [JAK2_Y373_YF] yielded phosphorylation enrichment of 1.51

TNEFEYDELIV [TGM1_Y136_D132N_YF] yielded phosphorylation enrichment of 1.61

QFQLKYSETPF [SIX6OS1_Y129_YF] yielded phosphorylation enrichment of 1.84

LLFRVYGLESL [INSR_Y94] yielded phosphorylation enrichment of 1.76

ERQIRYLNHQL [CEP152_Y268] yielded phosphorylation enrichment of 0.527

VKPENYRRLDV [VHL_Y175_I180V] yielded phosphorylation enrichment of 0.593
